Assay: Multi-component pharmacokinetics in rat plasma after oral administration of RB, RPA or RB-RPA extracts (UPLC-HRMS, non-compartmental analysis)
Assay type: in vivo, Sprague-Dawley rats
Conditions: male, Sprague-Dawley, rat, plasma, po, rat plasma, oral RB-RPA mixed extracts (45 g-herb/kg RB + 45 g-herb/kg RPA), mean ± SD, n = 7; read-out: Cmax
PARAMETER_MEASURED: Cmax (ng/mL)
Report only the number, with the unit ng/mL understood.

Record C[C@@]12C[C@@]3(O)O[C@@H](O1)[C@]1(COC(=O)c4ccccc4)[C@H]3C[C@@]12O[C@@H]1O[C@H](CO)[C@@H](O)[C@H](O)[C@H]1O , field Cmax: 2930
